- System: RXF 393 renal
- ASSAY OVERVIEW: NCI tumour cell line growth inhibition, 48 h
Would you kindly list GI50 for each of these molecules?

Example entries begin here.
> print(dat)
                                   molecule  test.value
1  COc1ccc2c(c1)/C(=C\c1c(C)nc3sccn13)C(=O)N2      722 nM
2  C1C[OH+]CC[OH+]CCNCC[OH+]CC[OH+]CCN1.N.[Cl-].[Pt+4]     2490 nM
3  CC1(C)CC(=O)c2c(C(F)(F)F)nn(-c3ccc(C(N)=O)c(NC4CCC(OC(=O)CN)CC4)c3)c2C1 (centres undefined)      157 nM

// switching to the query molecule
Item: `O=C(NCCO)Nc1ccc(-c2nc(N3CCOCC3)c3cccn3n2)cc1` | GI50: 68.6 nM

###

Would you kindly list TGI for each of these compounds?
- Test system: RPMI-8226 leukemia
- ASSAY OVERVIEW: NCI tumour cell line growth inhibition, 48 h
Where a SMILES comes first, the peptide text is derived from it. [ ]: non-standard residue; d: D form. The star is where a group is joined. X28 = COC1=CC(=O)N(C(=O)[C@@H](O*)C(C)C)[C@H]1Cc1ccccc1; NMeV = CN[C@H](C(=O)O)C(C)C; Hexanoyl = CCCCCC(=O)*

COMPOUND	TGI
N=C(N)c1ccc(-c2ccc(-c3cc(Cl)cc(Cl)c3)o2)nc1	4.33 µM
CCCCCCCCCCCCCCCCN1CC2CCCCC2C1 (configuration not stated)	4.06 µM
O=C(NCCO)Nc1ccc(-c2nc(N3CCOCC3)c3cccn3n2)cc1	> 54.6 µM
Cc1ccc(N=Cc2ccc3c(c2)OCO3)cc1C	> 100 µM
CCOC(=O)c1c2c(n3ccccc13)C(=O)c1ccccc1C2=O	> 100 µM

// input: 4 compounds below; output: TGI for each
1. CN(CC1(CO)CCC1)c1cc(Cl)nc(N)n1
2. Cc1cccc2nc3c(C(=O)NCCN(C)C)cccc3cc12
3. CCCCCC(=O)N[C@H](C(=O)N[C@H](C(=O)N(C)[C@H](C(=O)N1CCC[C@H]1C(=O)N1CCC[C@H]1C(=O)O[C@H](C(=O)N1C(=O)C=C(OC)[C@@H]1Cc1ccccc1)C(C)C)C(C)C)C(C)C)C(C)C (Hexanoyl-VV[NMeV]PP-X28)
4. NC(=O)N/N=C1\CCCCc2ccccc21

a:
1. > 100 µM
2. 4.19 µM
3. > 100 µM
4. > 10 µM

// input: 3 compounds below; output: TGI for each
1. O=C1c2c(ccc3c2CCCC3)CC12Cc1ccc3c(c1C2=O)CCCC3
2. CC1=Nc2ccccc2S/C1=C(/C)NNC(=O)C(N)=O
3. CC#CC#C/C=C1/O[C@]2(CCC(OC(C)=O)CO2)[C@@H]2O[C@H]12 (some centres not stated)

a:
["> 100 µM", "> 100 µM", "75.2 µM"]

###

Would you kindly list TGI for each of these molecules?
- Test system: EKVX NSCLC
- ASSAY OVERVIEW: NCI tumour cell line growth inhibition, 48 h

MOLECULE	MEASUREMENT TARGET	TGI
CC(=O)OCOC(=O)CN(CC(=O)OCOC(C)=O)Cc1cc2c(cc1OC(C)=O)Oc1cc(OC(C)=O)c(CN(CC(=O)OCOC(C)=O)CC(=O)OCOC(C)=O)cc1C21OC(=O)c2ccccc21	EKVX NSCLC	10.6 µM
NC(=O)NNc1nc2ccccc2c(=O)n1NC(=O)C(=O)Nc1ccc(Cl)cc1Cl	EKVX NSCLC	> 100 µM
NC(=O)c1cc2cc(Cl)cc(Cl)c2oc1=Nc1ccc(F)cc1	EKVX NSCLC	34.5 µM
COc1ccc2c(c1)cn1c3ccc(O)cc3nc(N)c21	EKVX NSCLC	18.5 µM
CCN(CC)c1ccc(C(=O)c2ccccc2C(=O)O)c(O)c1	EKVX NSCLC	> 100 µM

// input: 7 molecules below; output: TGI for each
1. Cc1cc(N(CCC#N)CCC#N)ccc1N=Nc1cccc(C(=O)O)c1
2. NNC(=O)/C(=C/c1ccc(Cl)cc1Cl)NC(=O)c1ccccc1
3. Cc1ccc(N=Nc2c(O)c(C(=O)O)cc3ccccc23)cc1C
4. COc1ccc(OC)c(NC(=O)C2=C(C)NC(C)=C(C(=O)Nc3cc(OC)ccc3OC)C2c2ccccc2)c1
5. C=CCC[CH2][Sn]([c]1ccccc1)([c]1ccccc1)[c]1ccccc1
6. CCOC(=O)C1=[N+]([O-])OC2=C(O)CCCC21 (centres undefined)
7. CCCCCCCCCCCCCCCCN1CC2CCCCC2C1 (centres undefined)

a:
1: > 100 µM; 2: > 100 µM; 3: > 100 µM; 4: > 100 µM; 5: 3.97 µM; 6: > 100 µM; 7: 21.8 µM

###

- Tested on: MALME-3M melanoma
- ASSAY OVERVIEW: NCI tumour cell line growth inhibition, 48 h
EXPERIMENTAL ENDPOINT: TGI (µM)
Answers are plain numbers, in µM.

Example entries begin here.
> print(dat)
                               query.smiles  test.value
1  NC(=O)c1cc2cc(Cl)cc(Cl)c2oc1=Nc1ccc(F)cc1          43
2  COc1ccc(-c2csc(N(C(=O)N3CCN(c4cc5c(cc4F)c(=O)c(C(=O)O)cn5C4CC4)CC3)c3ccccc3)n2)cc1        7.54
3               Nc1ccccc1C#C/C=C\C#Cc1cccs1        29.2

// switching to the query compound
Item: `COc1ccc2nc(-c3ccc(-c4noc(-c5cc(OC)c(OC)c(OC)c5)n4)cc3)[nH]c2c1` | TGI: 7.51

###

Would you kindly list TGI for each of these compounds?
- Tested on: HL-60(TB) leukemia
- ASSAY OVERVIEW: NCI tumour cell line growth inhibition, 48 h

Example entries begin here.
> print(dat)
                                   compound  test.value
1  CCCC1(NC(=O)C(F)(F)F)CC(OC)OC2COC(c3ccccc3)OC21 (stereo not drawn)     95.3 µM
2   CCOC(=O)N(Cc1cccs1)c1cc(OC)c(OC)c(OC)c1    > 100 µM
3  O=C(c1cccc2ccccc12)C1(Br)S(=O)(=O)OCCOS1(=O)=O    > 100 µM
4  COc1cc(/C=C/C(=O)c2ccc(NS(=O)(=O)c3cc([N+](=O)[O-])ccc3C)cc2)cc(OC)c1OC     11.1 µM
5                    CCN(CC)CSc1nc2ccccc2s1    > 100 µM

// input: 3 compounds below; output: TGI for each
1. CC(=O)N1C(Nc2ccccn2)CCN1c1ccccc1 (stereo not drawn)
2. C=CCOc1ccc(/C(N=Nc2ccc(Cl)cc2)=N/NC(=O)c2ccccc2)cc1OC
3. c1ccc([P+](Cc2ccc(C[P+](c3ccccc3)(c3ccccc3)c3ccccc3)cc2)(c2ccccc2)c2ccccc2)cc1

a:
["> 10 µM", "> 100 µM", "> 100 µM"]

###

- Test system: NCI-H522 lung
- ASSAY OVERVIEW: NCI tumour cell line growth inhibition, 48 h
Would you kindly list TGI for each of these molecules?

MOLECULE	TGI
CC[C@H]1C=CCC[C@@]2(C[C@@H]3CC[C@@H]4[C@H](C(=O)OCCCCCCCCCCCCCCCC(=O)O)[C@]5(CCC[C@@H](C)O5)NC(=[N+]34)N2)O1	0.365 µM

// input: 7 molecules below; output: TGI for each
1. CCSCCC(N)C(=O)O (configuration not stated)
2. COc1ccc(/C=C2\CCCC3=C2N=C2SC(C)=NN2C3c2ccc(OC)c(OC)c2)cc1OC (configuration not stated)
3. CC(=O)N1C(Nc2ccccn2)CCN1c1ccccc1 (configuration not stated)
4. CCOC(=O)c1cc(NS(=O)(=O)c2ccccc2)cc(C(=O)OCC)c1
5. O=C(/C=C/c1ccccc1)c1cc(Br)ccc1O
6. C/C(=N/NC(=S)Nc1ccc([N+](=O)[O-])cc1)c1cccc(/C(C)=N\NC(=S)Nc2ccc([N+](=O)[O-])cc2)n1
7. NCCn1c(=O)[nH]c(=O)[nH]c1=S

a:
1: > 100 µM; 2: 57.8 µM; 3: > 10 µM; 4: > 100 µM; 5: 28.4 µM; 6: 21.2 µM; 7: > 100 µM

// input: 6 molecules below; output: TGI for each
1. Cc1ccccc1[P+](Cc1ccccc1)(c1ccccc1)c1ccccc1
2. COc1ccc(-c2nc3sc4c(c3c(=O)[nH]2)CCCCCC4)cc1
3. NC(=O)N/N=C1\CCCCc2ccccc21
4. Cc1ccc(N=Nc2c(O)c(C(=O)O)cc3ccccc23)cc1C
5. CC(=O)OCC1OC(OC2C(CSC3OC(COC(C)=O)C(OC(C)=O)C(OC(C)=O)C3OC(C)=O)OC(OC(C)=O)C(OC(C)=O)C2OC(C)=O)C(OC(C)=O)C(OC(C)=O)C1OC(C)=O (configuration not stated)
6. CC(C)c1cc(-c2n[nH]c(=O)n2-c2ccc3c(ccn3C)c2)c(O)cc1O

a:
1: 10.5 µM; 2: > 33.2 µM; 3: > 10 µM; 4: > 100 µM; 5: > 100 µM; 6: 17.1 µM

Each recorded value in this set is attributed to PubChem BioAssay (NCI).
